A collection of binders and their measured Kd
# assayed.target: T1, recombinant human IL4Rα-his protein (in house made) (human, UniProt P24394 26-232, limits assumed)
# T1 construct: also called Human IL4Ra-his
# assay.text: SPR (Biacore), antibody captured, IL4Rα-his flowed
Give your result in pM as a bare value.

huB8G11F2B7G5E8-V14 (antibody, human IgG4 S228P, kappa, V domains shown, Humanized, human IgG4/kappa; also called huBSG11F2B7G5E8-V14) VH: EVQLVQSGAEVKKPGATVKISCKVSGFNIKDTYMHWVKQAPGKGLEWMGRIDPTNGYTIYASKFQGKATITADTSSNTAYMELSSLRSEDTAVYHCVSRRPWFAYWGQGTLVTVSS VL: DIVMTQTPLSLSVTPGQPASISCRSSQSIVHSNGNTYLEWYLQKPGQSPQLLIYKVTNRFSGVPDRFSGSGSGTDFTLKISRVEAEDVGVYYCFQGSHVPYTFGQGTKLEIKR
3880
huC2C1A1A1-V14 (antibody, human IgG4 S228P, kappa, V domains shown, Humanized, human IgG4/kappa) VH: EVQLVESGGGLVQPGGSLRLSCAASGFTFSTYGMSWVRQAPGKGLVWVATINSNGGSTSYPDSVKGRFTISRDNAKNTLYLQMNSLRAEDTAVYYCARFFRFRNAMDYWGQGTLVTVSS VL: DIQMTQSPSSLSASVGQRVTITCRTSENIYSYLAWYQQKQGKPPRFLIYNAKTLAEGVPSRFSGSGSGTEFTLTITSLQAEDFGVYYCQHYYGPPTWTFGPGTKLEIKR
642

Now take the following binder into account.
Exercise: Look up and state reported Kd for huC2C1A1A1-V15 (antibody, human IgG4, V domains shown, Humanized, human IgG4/kappa) VH: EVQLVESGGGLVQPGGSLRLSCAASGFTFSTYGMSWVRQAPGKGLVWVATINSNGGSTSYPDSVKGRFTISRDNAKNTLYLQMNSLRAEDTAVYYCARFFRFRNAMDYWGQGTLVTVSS VL: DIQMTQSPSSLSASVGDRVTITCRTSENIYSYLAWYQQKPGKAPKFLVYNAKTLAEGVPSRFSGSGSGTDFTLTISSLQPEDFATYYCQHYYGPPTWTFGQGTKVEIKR
Key: 447

Every entry's value here was drawn from patent US20230105029A1.
